This collection of values is drawn from ChEMBL document CHEMBL1129930.

system: Mus musculus; assay: Tested for antiinflammatory activity on mouse type II collagen arthritis as Paw swelling of all animals in each group on day 37 at intraperitoneal dose of 6 mg/kg; type: functional

{"columns": ["Compound", "Paw swelling, mm"],
 "data": [
  ["CCc1c(CN(C)c2ccc(C(=O)NC(CCC(=O)O)C(=O)O)s2)cnc2nc(N)nc(N)c12 (stereo not given)", 2.16],
  ["Nc1nc(N)c2cc(CCc3ccc(C(=O)NC(CCC(=O)O)C(=O)O)cn3)cnc2n1 (stereo not given)", 2.61],
  ["Cc1c(CNc2ccc(C(=O)NC(CCC(=O)O)C(=O)O)cc2)cnc2nc(N)nc(N)c12 (stereo not given)", 2.34],
  ["C#CCN(Cc1cnc2nc(N)nc(N)c2c1C)c1ccc(C(=O)NC(CCC(=O)O)C(=O)O)cc1 (stereo not given)", 2.32],
  ["C=CCC(Cc1cnc2nc(N)nc(N)c2c1C)c1ccc(C(=O)NC(CCC(=O)O)C(=O)O)cc1 (stereo not given)", 2.66]
]}
